A collection of binders and their measured OD (binding of phages to LR04)
Target: LRO4
Test: phage ELISA, coated LRO4
Bridges are numbered along the chain shown (N, C = ends). Where no end group is shown, it is not given here.
Answer format: numeric, OD implied, no suffix.

Example cases with answers are listed next.
INSERT INTO measurements (binder, measurement_type, data_value) VALUES
  ('NSWTNASLSTFHGGGS (peptide, not shown: large carriers) [phage clone A40]', 'OD (binding of phages to LR04)', 0.89),
  ('ESWTNSWAHYFGGGGS (peptide, not shown: large carriers) [phage clones A36, B41, M35]', 'OD (binding of phages to LR04)', 1.16);

Quick one: OD (binding of phages to LR04) for ACNNQNMPLCGGGS (peptide, not shown: large carriers, disulfide 2-10; also: C-terminus fused to phage pIII) [phage clone Cb9] ? 0.7

# iterate: ASISNLTLSRFMGGGS (peptide, not shown: large carriers) [phage clone M15] 1.34

# iterate: ACNNSKMRLCGGGS (peptide, not shown: large carriers, disulfide 2-10; also: C-terminus fused to phage pIII) [phage clone Ca2] 0.8

# iterate: GWGNKTPSQDVHGGGS (peptide, not shown: large carriers) [phage clone A39] 1.19

Source listed as patent US20150056209A1.
